tested on: DNA aptamer or structured DNA CTTACGACAAGGGATGTGTAGTTAGTGGTCGGATCCGAGTCGTAAG; settings: 10 mM Tris-HCl, pH 7.4
MEASURED_METRIC: pKd
Please express pKd as -log10 of the molar concentration.

**Query** Dear colleague, I am looking for the recorded pKd of the following molecule: COC(=O)[C@@H]1C2CCC(C[C@@H]1OC(=O)c1ccccc1)N2C (stereo partly specified)
**Result** 5.58

----------
system: DNA aptamer or structured DNA CTTACGACACACGGTGTGGATGAGGTGGGCTAATAGGGGTCGTAAG; details: 10 mM Tris-HCl, pH 7.4
MEASURED_METRIC: binding call; also: call rule not given here

Use the examples below as a reference point.
>>> df
                                   molecule  assay_value
0  CC(C)Cc1ccc(C(C)C(=O)O)cc1 (configuration not stated)   no binding
1                CCN(CC)CCOC(=O)c1ccc(N)cc1   no binding
2  CN1CCCC1c1cccnc1 (configuration not stated)   no binding
3              CN[C@@H](C)[C@@H](O)c1ccccc1   no binding
4  CC(C)[C@H](NC(=O)c1nn(Cc2ccc(F)cc2)c2ccccc12)C(N)=O   no binding

The record that follows has no binding call shown yet.
**Query** Name the recorded binding call for Cn1c(=O)c2c(ncn2C)n(C)c1=O .
**Result** no binding

Hey, just so you know, these numbers are from the AptaBench aptamer set (doi:10.1093/nar/gkaf219).
